Listed below: pIC50 values for each entry.
# experimental-system: CB1 receptor
# Construct: IC50 [nM]; radioligand [3H]-CP55940
# experiment-notes: In-vitro determination of affinity to CB1/CB2-receptors (radioligand [3H]-CP55940 binding)
# condition-description: binding data per pharmacological methods part I, table does not say whether human transfected receptor or rat cerebellum
pIC50: −log10 of the molar value.

[
  {
    "compound": "O=C(C1=NN(c2ccc(Cl)cc2Cl)C(c2ccc(Cl)cc2)C1)N1C=NCCC1 (centres unmarked) [Example 75]",
    "lt-gt-eq": "<",
    "pIC50": 6.00
  },
  {
    "compound": "CC1CCCC(NC(=O)C2=NN(c3ccc(Cl)cc3Cl)C(c3ccc(Cl)cc3)C2)C1 (centres unmarked) [Example 57]",
    "lt-gt-eq": "=",
    "pIC50": 7.40
  },
  {
    "compound": "O=C(NN1CCCCCCC1)C1=NN(c2ccc(Cl)cc2Cl)C(c2ccc(F)cc2)C1 (centres unmarked) [Example 147]",
    "lt-gt-eq": "=",
    "pIC50": 7.27
  },
  {
    "compound": "O=C(N[C@@H]1CCCC[C@H]1OCc1ccccc1)C1=NN(c2ccc(Cl)cc2Cl)C(c2ccc(Cl)cc2)C1 (some centres unmarked) [Example 178]",
    "lt-gt-eq": "=",
    "pIC50": 6.92
  },
  {
    "compound": "O=C(NN1CCCCCC1)C1=NN(c2ccc(Cl)cc2Cl)C(c2ccc(Br)cc2)C1 (centres unmarked) [Example 68]",
    "lt-gt-eq": "=",
    "pIC50": 7.40
  }
]

* * *

Listed below: IC50 values for each entry.
# experimental-system: CB1 receptor
# Construct: IC50 [nM]; radioligand [3H]-CP55940
# experiment-notes: In-vitro determination of affinity to CB1/CB2-receptors (radioligand [3H]-CP55940 binding)
# condition-description: binding data per pharmacological methods part I, table does not say whether human transfected receptor or rat cerebellum
metric: IC50 (nM)

[
  {
    "molecule": "O=C(NC1CCCC1)C1=NN(c2ccc(Cl)cc2Cl)C(c2ccc(Cl)cc2)C1 (stereo not shown)",
    "output-unit": "nM",
    "lt-gt-eq": "=",
    "numeric-value": 280
  },
  {
    "molecule": "CC(C)(C)C1CCC(NC(=O)C2=NN(c3ccc(Cl)cc3Cl)C(c3ccc(Cl)cc3)C2)CC1 (stereo not shown)",
    "output-unit": "nM",
    "lt-gt-eq": ">",
    "numeric-value": 1000
  },
  {
    "molecule": "CCCCN(NC(=O)C1=NN(c2ccc(Cl)cc2Cl)C(c2ccc(Cl)cc2)C1)c1ccccc1 (stereo not shown)",
    "output-unit": "nM",
    "lt-gt-eq": ">",
    "numeric-value": 1000
  },
  {
    "molecule": "Cl.O=C(NN1CC2CCCC2C1)C1=NN(c2ccc(Cl)cc2Cl)C(c2ccc(F)cc2)C1 (stereo not shown) [Example 91A]",
    "output-unit": "nM",
    "lt-gt-eq": "=",
    "numeric-value": 84
  }
]

* * *

Listed below: Inhibition [%], 10^−7 M values for each entry.
# experimental-system: CB1 receptor (UniProt P20272)
# Construct: other: compound at 10^−7 M; radioligand [3H]-CP55940; other: compound at 10^−8 M
# experiment-notes: In-vitro determination of affinity to CB1/CB2-receptors (radioligand [3H]-CP55940 binding)
# condition-description: compound at 10^−7 M
# Description: The in-vitro determination of the affinity of the inventive substituted pyrazoline compounds to CB1/CB2-Rezeptors is carried out as described in the publication of Ruth A. Ross, Heather C. […] Binding affinity to CB1 receptor was evaluated according to a modification of the method described by Govaerts et al., Eur J Pharmac Sci 23, 233-243 (2004). […] Binding data were analyzed by non-linear regression with the software GraphPad Prism Version 3.03.
metric: Inhibition [%], 10^−7 M (%)

[
  {
    "compound": "Cl.O=C(NN1CCCCC1)C1=NN(c2ccc(Cl)cc2Cl)C(c2ccc(F)cc2)C1 (stereo not shown) [Example 135]",
    "output-unit": "%",
    "numeric-value": 78.5
  },
  {
    "compound": "O=C(N[N+]1([O-])CCCCC1)C1=NN(c2ccc(Cl)cc2Cl)C(c2ccc(Cl)cc2)C1 (stereo not shown) [Example 7]",
    "output-unit": "%",
    "numeric-value": 71.2
  },
  {
    "compound": "Cl.O=C(NN1CCCCCCC1)C1=NN(c2ccc(Cl)cc2Cl)C(c2ccc(Cl)cc2)C1 (stereo not shown) [Example 145]",
    "output-unit": "%",
    "numeric-value": 57.6
  },
  {
    "compound": "O=C(NN1CCCCCC1)C1=NN(c2ccc(Cl)cc2Cl)C(c2ccc(F)cc2)C1 (stereo not shown) [Example 96]",
    "output-unit": "%",
    "numeric-value": 74.8
  }
]
